- MEASURED_ON: T1, TNFR1 (Homo sapiens, UniProt P19438)
- T1 chain: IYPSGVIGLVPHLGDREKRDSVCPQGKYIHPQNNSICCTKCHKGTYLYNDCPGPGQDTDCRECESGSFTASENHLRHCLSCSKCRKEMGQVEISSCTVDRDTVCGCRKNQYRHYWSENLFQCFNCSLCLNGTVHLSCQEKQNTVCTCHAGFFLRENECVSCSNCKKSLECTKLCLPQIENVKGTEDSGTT
- ASSAY_EXPLANATION: yeast display SC50
PARAMETER: apparent Kd (screen) (nM)
Hi! Could you send only the number? It should be in nM, unit omitted.

# count of solved cases: 7
E82C (designed binder) SMEEEVEKAAKEYEKKKKEAIEKHLEKLKAKDKEAAERFLKELEEAAKEYAKDEAKTMSEEEAKRRAKKYKEKVLLSELSECEQKEIKEAEEKLVRTILKYVEEAAK: 1.86
T97L (designed binder) SMEEEVEKAAKEYEKKKKEAIEKHLEKLKAKDKEAAERFLKELEEAAKEYAKDEAKTMSEEEAKRRAKKYKEKVLLSELSEEEQKEIKEAEEKLVRLILKYVEEAAK: 1.69
K17M (designed binder) SMEEEVEKAAKEYEKKMKEAIEKHLEKLKAKDKEAAERFLKELEEAAKEYAKDEAKTMSEEEAKRRAKKYKEKVLLSELSEEEQKEIKEAEEKLVRTILKYVEEAAK: 0.79
E19N (designed binder) SMEEEVEKAAKEYEKKKKNAIEKHLEKLKAKDKEAAERFLKELEEAAKEYAKDEAKTMSEEEAKRRAKKYKEKVLLSELSEEEQKEIKEAEEKLVRTILKYVEEAAK: 0.446
L76G (designed binder) SMEEEVEKAAKEYEKKKKEAIEKHLEKLKAKDKEAAERFLKELEEAAKEYAKDEAKTMSEEEAKRRAKKYKEKVLGSELSEEEQKEIKEAEEKLVRTILKYVEEAAK: 11.4
Y50V (designed binder) SMEEEVEKAAKEYEKKKKEAIEKHLEKLKAKDKEAAERFLKELEEAAKEVAKDEAKTMSEEEAKRRAKKYKEKVLLSELSEEEQKEIKEAEEKLVRTILKYVEEAAK: 0.0802
E7Q (designed binder) SMEEEVQKAAKEYEKKKKEAIEKHLEKLKAKDKEAAERFLKELEEAAKEYAKDEAKTMSEEEAKRRAKKYKEKVLLSELSEEEQKEIKEAEEKLVRTILKYVEEAAK: 4.39

Attention now shifts to the item below.
// field: apparent Kd (screen); key: R66W (designed binder) SMEEEVEKAAKEYEKKKKEAIEKHLEKLKAKDKEAAERFLKELEEAAKEYAKDEAKTMSEEEAKRWAKKYKEKVLLSELSEEEQKEIKEAEEKLVRTILKYVEEAAK ; value = 8.56
